Items are presented alongside their recorded DC50.
Biological target: LRRK2 (endogenous, HiBit tagged) (Homo sapiens)
Construct: endogenous in cells; host or cells: HEK293 cells with HiBit knock-in at the endogenous LRRK2 locus, stably expressing firefly luciferase
Sequence (Q5S007 whole entry): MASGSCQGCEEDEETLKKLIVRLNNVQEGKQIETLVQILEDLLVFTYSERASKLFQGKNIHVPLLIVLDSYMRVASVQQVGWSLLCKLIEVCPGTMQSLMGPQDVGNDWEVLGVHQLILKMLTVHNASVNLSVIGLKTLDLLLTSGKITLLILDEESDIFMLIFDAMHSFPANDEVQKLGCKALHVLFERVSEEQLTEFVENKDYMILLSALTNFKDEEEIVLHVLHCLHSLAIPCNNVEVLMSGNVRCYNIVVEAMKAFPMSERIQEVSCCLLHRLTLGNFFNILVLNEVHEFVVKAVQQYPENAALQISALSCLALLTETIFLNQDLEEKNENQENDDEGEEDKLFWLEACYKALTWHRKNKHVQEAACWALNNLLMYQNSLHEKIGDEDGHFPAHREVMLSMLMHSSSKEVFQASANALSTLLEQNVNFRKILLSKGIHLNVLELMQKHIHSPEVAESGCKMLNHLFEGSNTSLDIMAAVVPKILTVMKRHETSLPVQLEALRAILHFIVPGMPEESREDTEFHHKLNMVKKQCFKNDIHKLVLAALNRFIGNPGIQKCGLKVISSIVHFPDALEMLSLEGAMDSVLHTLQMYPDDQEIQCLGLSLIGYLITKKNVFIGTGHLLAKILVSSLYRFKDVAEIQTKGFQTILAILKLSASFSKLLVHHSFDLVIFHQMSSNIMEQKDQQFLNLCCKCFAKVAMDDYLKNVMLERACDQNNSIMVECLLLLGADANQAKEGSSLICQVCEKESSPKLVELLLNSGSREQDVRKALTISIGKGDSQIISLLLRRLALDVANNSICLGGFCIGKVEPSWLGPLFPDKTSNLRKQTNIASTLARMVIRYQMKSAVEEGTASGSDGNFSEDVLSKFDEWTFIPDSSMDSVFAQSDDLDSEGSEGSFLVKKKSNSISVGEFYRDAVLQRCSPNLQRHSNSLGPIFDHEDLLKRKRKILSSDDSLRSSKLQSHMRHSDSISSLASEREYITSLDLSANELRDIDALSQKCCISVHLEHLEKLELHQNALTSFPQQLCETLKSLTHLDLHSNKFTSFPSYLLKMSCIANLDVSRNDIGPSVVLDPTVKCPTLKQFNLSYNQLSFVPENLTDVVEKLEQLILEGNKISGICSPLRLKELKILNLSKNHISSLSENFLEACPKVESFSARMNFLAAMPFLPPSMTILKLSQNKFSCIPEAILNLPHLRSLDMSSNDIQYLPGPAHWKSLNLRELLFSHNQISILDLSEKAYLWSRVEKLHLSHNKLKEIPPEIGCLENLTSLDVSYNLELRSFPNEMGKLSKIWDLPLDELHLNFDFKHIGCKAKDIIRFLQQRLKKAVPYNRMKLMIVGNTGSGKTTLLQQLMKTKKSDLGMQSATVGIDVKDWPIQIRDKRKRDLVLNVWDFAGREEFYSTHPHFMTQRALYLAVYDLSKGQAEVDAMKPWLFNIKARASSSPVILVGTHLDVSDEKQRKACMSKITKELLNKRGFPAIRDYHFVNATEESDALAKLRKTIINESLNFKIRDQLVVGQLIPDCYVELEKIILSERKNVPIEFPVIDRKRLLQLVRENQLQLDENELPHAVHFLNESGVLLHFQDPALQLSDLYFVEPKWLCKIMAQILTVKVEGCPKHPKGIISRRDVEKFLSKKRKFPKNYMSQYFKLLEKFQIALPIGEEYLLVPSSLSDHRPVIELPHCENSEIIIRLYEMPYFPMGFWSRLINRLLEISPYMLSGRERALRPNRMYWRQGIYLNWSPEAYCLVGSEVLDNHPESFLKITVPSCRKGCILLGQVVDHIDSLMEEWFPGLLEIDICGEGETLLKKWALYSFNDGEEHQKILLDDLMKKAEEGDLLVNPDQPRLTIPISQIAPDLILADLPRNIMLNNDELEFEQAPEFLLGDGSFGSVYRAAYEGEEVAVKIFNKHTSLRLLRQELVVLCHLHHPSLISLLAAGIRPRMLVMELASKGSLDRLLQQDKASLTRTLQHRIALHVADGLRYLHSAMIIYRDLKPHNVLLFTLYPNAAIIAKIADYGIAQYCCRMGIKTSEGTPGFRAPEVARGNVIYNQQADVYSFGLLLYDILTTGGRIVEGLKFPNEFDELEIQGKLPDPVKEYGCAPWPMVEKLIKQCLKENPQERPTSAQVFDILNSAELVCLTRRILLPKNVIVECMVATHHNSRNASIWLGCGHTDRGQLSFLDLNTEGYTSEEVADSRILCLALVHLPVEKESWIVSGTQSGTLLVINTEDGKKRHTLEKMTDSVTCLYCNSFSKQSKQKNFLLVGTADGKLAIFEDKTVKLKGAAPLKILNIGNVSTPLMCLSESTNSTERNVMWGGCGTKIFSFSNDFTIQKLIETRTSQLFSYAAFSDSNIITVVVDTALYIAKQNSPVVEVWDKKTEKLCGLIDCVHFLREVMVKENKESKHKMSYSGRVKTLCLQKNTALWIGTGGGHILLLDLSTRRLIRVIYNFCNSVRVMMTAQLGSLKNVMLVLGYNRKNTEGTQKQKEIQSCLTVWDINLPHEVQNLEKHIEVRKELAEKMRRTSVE
Test: Endogenous LRRK2 degradation assay, endogenous gene C-terminally HiBit-tagged in HEK293 cells (Nano-Glo Dual Luciferase)
Assay type: cell-based
Conditions: endogenous HiBit-tagged LRRK2, HEK293 cells, 24 hours; read-out: *Endogenous WT DC50

CC1(Oc2ccc3[nH]nc(-c4cc(N5CCC(CN6CCN(CC7CCN(c8ccc9c(c8F)CN(C8CCC(=O)NC8=O)C9=O)CC7)CC6)CC5)ncn4)c3c2)CC1 (centres unmarked)    < 10 nM
C[C@H]1CN(c2cc(-c3n[nH]c4ccc(OC5(C)CC5)cc34)ncn2)CCN1CC1(F)CCN(CC2CCN(c3ccc4c(c3F)CN(C3CCC(=O)NC3=O)C4=O)CC2)CC1 (some centres unmarked)    < 10 nM
C[C@H]1CN(c2cc(-c3n[nH]c4cc(F)c(OC5(C)CC5)cc34)ncn2)CCN1CC1(F)CCN(CC2CCN(c3ccc4c(c3F)CN(C3CCC(=O)NC3=O)C4=O)CC2)CC1 (some centres unmarked)    < 10 nM
C[C@H]1CN(c2cc(-c3[nH]nc4ccc(OC5(C)CC5)cc34)ncn2)CCN1CCN1CCC(CN2CCN(c3ccc4c(c3F)CN(C3CCC(=O)NC3=O)C4=O)CC2)CC1 (some centres unmarked)    < 10 nM

Query: State the measured DC50 (LRRK2 (endogenous, HiBit tagged) (Homo sapiens)) of CC1(Oc2cc3c(-c4cc(N5CCN(CC6(F)CCN(CC7CCN(c8cc9c(cc8F)C(=O)N(C8CCC(=O)NC8=O)C9)CC7)CC6)CC5)ncn4)[nH]nc3cc2F)CC1 (centres unmarked)
Result: < 10 nM
